Assay: in vivo
Details: mouse, 0.001 mg/kg
measured metric: concentration at 6 h (nM)
Respond with the bare value in nM.

For CNCc1ccc(-c2cnc3c(c2)C[C@@]2(CN4CCC2CC4)O3)s1 [Example E1] , what is its reported concentration at 6 h?
0.0332

====

Test: in vivo
Conditions: mouse, po, 1 mg/kg
measured metric: concentration at 10 h (nM)
Respond numerically; units are nM and should not be typed.

Returns the measured concentration at 10 h for the input compound. Input: CNCc1ccc(-c2cnc3c(c2)C[C@@]2(CN4CCC2CC4)O3)s1 [Example E1]
29.7

====

Experiment: in vivo
Conditions: mouse, 0.01 mg/kg
measured metric: concentration at 0 h (nM)
Express it in nM; write the number only.

Name the reported concentration at 0 h value associated with the compound CNCc1ccc(-c2cnc3c(c2)C[C@@]2(CN4CCC2CC4)O3)s1 [Example E1]
0

====

Assay: in vivo
Settings: mouse, 0.001 mg/kg
measured metric: concentration at 0 h

What value of concentration at 0 h has been recorded for this entry: CNCc1ccc(-c2cnc3c(c2)C[C@@]2(CN4CCC2CC4)O3)s1 [Example E1]
0.3 pM

====

Experiment: in vivo
Conditions: mouse, 0.01 mg/kg
measured metric: concentration at 6 h (nM)
Use nM as the unit, but write only the number.

# query: concentration at 6 h of entry CNCc1ccc(-c2cnc3c(c2)C[C@@]2(CN4CCC2CC4)O3)s1 [Example E1]
0.33

====

Assay: in vivo
Conditions: mouse, 0.1 mg/kg
measured metric: concentration at 0.75 h (nM)
Respond numerically; units are nM and should not be typed.

# concentration at 0.75 h lookup, item CNCc1ccc(-c2cnc3c(c2)C[C@@]2(CN4CCC2CC4)O3)s1 [Example E1]
1.19

====

Assay: in vivo
Settings: guinea pig
measured metric: Vd (L/kg)
Report only the number, with the unit L/kg understood.

Quick check: Vd of CNCc1ccc(-c2cnc3c(c2)C[C@@]2(CN4CCC2CC4)O3)s1 [Example E1] ?
10.2

====

Test: in vivo
Conditions: mouse, 0.1 mg/kg
measured metric: concentration at 0 h (nM)
Give your result in nM as a bare value.

Item CNCc1ccc(-c2cnc3c(c2)C[C@@]2(CN4CCC2CC4)O3)s1 [Example E1] has what recorded concentration at 0 h?
0.03

====

Experiment: in vivo
Settings: mouse, po, 0.1 mg/kg
measured metric: AUC (µM·h)
Hi! Could you send only the number? It should be in µM·h, unit omitted.

Which AUC reading was recorded for the molecule CNCc1ccc(-c2cnc3c(c2)C[C@@]2(CN4CCC2CC4)O3)s1 [Example E1] ?
0.0294

====

Assay: in vivo
Conditions: mouse, 0.03 mg/kg
measured metric: concentration at 0 h (nM)
Entry rule: numbers only, all in nM.

What does the record list as concentration at 0 h for CNCc1ccc(-c2cnc3c(c2)C[C@@]2(CN4CCC2CC4)O3)s1 [Example E1] ?
0.01

====

Test: in vivo
Conditions: mouse, po, 1 mg/kg
measured metric: concentration at 0.75 h (nM)
Give your result in nM as a bare value.

Reported concentration at 0.75 h for CNCc1ccc(-c2cnc3c(c2)C[C@@]2(CN4CCC2CC4)O3)s1 [Example E1] : what is it?
11.9

====

Test: in vivo
Details: mouse, 0.03 mg/kg
measured metric: concentration at 8 h (nM)
I only need the number, in nM, no unit after it.

Which value of concentration at 8 h has been reported for CNCc1ccc(-c2cnc3c(c2)C[C@@]2(CN4CCC2CC4)O3)s1 [Example E1] in the records?
1.05

====

Assay: in vivo
Conditions: mouse, 0.03 mg/kg
measured metric: concentration at 2 h (nM)
Only the number, expressed in nM, is required.

Find the recorded concentration at 2 h belonging to CNCc1ccc(-c2cnc3c(c2)C[C@@]2(CN4CCC2CC4)O3)s1 [Example E1] and report it.
0.8

====

Experiment: in vivo
Settings: mouse, 0.03 mg/kg
measured metric: concentration at 0.75 h (nM)
Dear colleague, please return just the value in nM, with no unit written.

Value lookup for concentration at 0.75 h; key = CNCc1ccc(-c2cnc3c(c2)C[C@@]2(CN4CCC2CC4)O3)s1 [Example E1]
0.36

====

Assay: in vivo
Settings: mouse, po, 1 mg/kg
measured metric: concentration at 2 h (µM)
Could you give me the number in µM? Just the number is fine.

Need concentration at 2 h of CNCc1ccc(-c2cnc3c(c2)C[C@@]2(CN4CCC2CC4)O3)s1 [Example E1] , thanks.
0.0266

====

Assay: in vivo
Conditions: mouse, 0.01 mg/kg
measured metric: concentration at 2 h (nM)
Reply numerically in nM, unit not repeated.

Consider the compound CNCc1ccc(-c2cnc3c(c2)C[C@@]2(CN4CCC2CC4)O3)s1 [Example E1] and give its measured concentration at 2 h.
0.27

====

Test: in vivo
Settings: mouse, 0.1 mg/kg
measured metric: concentration at 0.17 h (nM)
Reply with just the number (in nM).

Which value of concentration at 0.17 h has been reported for CNCc1ccc(-c2cnc3c(c2)C[C@@]2(CN4CCC2CC4)O3)s1 [Example E1] in the records?
0.17

====

Assay: in vivo
Conditions: mouse, 0.001 mg/kg
measured metric: concentration at 8 h

Using the record for CNCc1ccc(-c2cnc3c(c2)C[C@@]2(CN4CCC2CC4)O3)s1 [Example E1] , report its concentration at 8 h.
0.0349 nM

====

Test: in vivo
Conditions: mouse, 0.01 mg/kg
measured metric: concentration at 8 h (nM)
Just the number in nM, nothing appended.

Please look up its concentration at 8 h: CNCc1ccc(-c2cnc3c(c2)C[C@@]2(CN4CCC2CC4)O3)s1 [Example E1]
0.35

====

Experiment: in vivo
Details: mouse, 0.03 mg/kg
measured metric: concentration at 0.17 h (nM)
Note: unit nM is implicit; provide only the numeric part.

Dear colleague, I am looking for the recorded concentration at 0.17 h of the following compound: CNCc1ccc(-c2cnc3c(c2)C[C@@]2(CN4CCC2CC4)O3)s1 [Example E1]
0.05

====

Experiment: in vivo
Details: mouse, po, 1 mg/kg
measured metric: concentration at 0.5 h

Would you kindly share the measured concentration at 0.5 h for CNCc1ccc(-c2cnc3c(c2)C[C@@]2(CN4CCC2CC4)O3)s1 [Example E1] ?
8.08 nM

====

Test: in vivo
Conditions: mouse, 0.01 mg/kg
measured metric: concentration at 0.17 h (nM)
Expressed in nM, but write only the number.

Data request, read-out concentration at 0.17 h, for CNCc1ccc(-c2cnc3c(c2)C[C@@]2(CN4CCC2CC4)O3)s1 [Example E1]
0.02

====

Test: in vivo
Conditions: mouse, po, 0.01 mg/kg
measured metric: AUC

What value of AUC has been recorded for this entry: CNCc1ccc(-c2cnc3c(c2)C[C@@]2(CN4CCC2CC4)O3)s1 [Example E1]
2.94 nM·h

====

Experiment: in vivo
Conditions: mouse, 0.03 mg/kg
measured metric: concentration at 12 h (nM)
Give just the number in nM; leave the unit off.

Request the reported concentration at 12 h associated with CNCc1ccc(-c2cnc3c(c2)C[C@@]2(CN4CCC2CC4)O3)s1 [Example E1]
0.85

====

Test: in vivo
Conditions: mouse, 0.1 mg/kg
measured metric: concentration at 8 h (nM)
Reply numerically in nM, unit not repeated.

Value lookup for concentration at 8 h; key = CNCc1ccc(-c2cnc3c(c2)C[C@@]2(CN4CCC2CC4)O3)s1 [Example E1]
3.49

====

Assay: in vivo
Conditions: mouse, 0.01 mg/kg
measured metric: concentration at 1 h (nM)
State just the number; it will be interpreted in nM.

Quick one: concentration at 1 h for CNCc1ccc(-c2cnc3c(c2)C[C@@]2(CN4CCC2CC4)O3)s1 [Example E1] ?
0.16

====

Assay: in vivo
Conditions: mouse, 0.1 mg/kg
measured metric: concentration at 0.5 h (nM)
Give just the number in nM; leave the unit off.

Need concentration at 0.5 h of CNCc1ccc(-c2cnc3c(c2)C[C@@]2(CN4CCC2CC4)O3)s1 [Example E1] , thanks.
0.81

====

Assay: in vivo
Settings: mouse, po, 1 mg/kg
measured metric: concentration at 0.33 h

Find the recorded concentration at 0.33 h belonging to CNCc1ccc(-c2cnc3c(c2)C[C@@]2(CN4CCC2CC4)O3)s1 [Example E1] and report it.
5.75 nM

====

Assay: in vivo
Conditions: mouse, 0.1 mg/kg
measured metric: concentration at 24 h (nM)
Express the result in nM but write the number alone.

May I ask what concentration at 24 h has been recorded for CNCc1ccc(-c2cnc3c(c2)C[C@@]2(CN4CCC2CC4)O3)s1 [Example E1] ?
1.72

====

Assay: in vivo
Conditions: mouse, po, 1 mg/kg
measured metric: AUC (nM·h)
Express your answer in nM·h, writing the number without its unit.

Dear colleague, I am looking for the recorded AUC of the following compound: CNCc1ccc(-c2cnc3c(c2)C[C@@]2(CN4CCC2CC4)O3)s1 [Example E1]
294
